Measurement Protocol: Half-life in rat at 100 mg/kg, po
Assay type: ADME, organism-based
Protocol Conditions: in vivo
Value Kind: half-life

{"Smiles Entry": "CC(F)(F)CN1C(=O)[C@]2(C)COCCN2c2nc(-c3ccc(NC(=O)NC4CC4)cc3)ncc21", "Result": "882 to 900 min"}

---

Measurement Protocol: Cmax in dog at 30 mg/kg, po
Type: ADME, organism-based, Canis lupus familiaris
Parameters: dose 30 mg/kg, route oral
Protocol Conditions: in vivo
Value Kind: Cmax

{"Smiles Entry": "CC(F)(F)CN1C(=O)[C@]2(C)COCCN2c2nc(-c3ccc(NC(=O)NC4CC4)cc3)ncc21", "Value Kind": "Cmax", "Result": "726 ng/mL"}

---

Measurement Protocol: Cmax in rat at 83 mg/kg, po
Format: ADME, organism-based
Parameters: dose 83 mg/kg, route oral
Protocol Conditions: in vivo
Value Kind: Cmax (ng/mL)

{"Smiles Entry": "CC(F)(F)CN1C(=O)[C@]2(C)COCCN2c2nc(-c3ccc(NC(=O)NC4CC4)cc3)ncc21", "Numeric Result": 2370}

---

Lab note: log10(IC50) readings collected with Serine/threonine-protein kinase mTOR (Homo sapiens, UniProt P42345) for the following compounds.
Value Kind: log10(IC50) (log10 of the value in µM)

{"Compound": "C[C@@]12COCCN1c1nc(-c3ccc(NC(=O)NC4CC4)cc3)ncc1N(CC1CC1)C2=O", "log10(IC50)": -2.20}
{"Compound": "CNC(=O)Nc1ccc(-c2ncc3c(n2)N2CCOCC2C(=O)N3)cc1 (configuration not stated)", "log10(IC50)": -0.50}
{"Compound": "CNC(=O)Nc1ccc(-c2nc(C)c3nc4n(c3n2)CCOC4)cc1", "log10(IC50)": 0.70}
{"Compound": "CNC(=O)Nc1ccc(-c2ncc3c(n2)N2CCOCC2CO3)cc1 (configuration not stated)", "log10(IC50)": -0.30}
{"Compound": "CNC(=O)Nc1ccc(-c2ncc3c(n2)N2CCOCC2CC(=O)N3)cc1 (configuration not stated)", "log10(IC50)": 0.20}
{"Compound": "CNC(=O)Nc1ccc(-c2ncc3c(n2)N2CCOCC2C(=O)N3CC2CC2)cc1 (configuration not stated)", "log10(IC50)": -1.50}
{"Compound": "CNC(=O)Nc1ccc(-c2ncc3c(n2)N2CCOC[C@@]2(C)C(=O)N3CC2CC2)cc1", "log10(IC50)": -2.10}

---

Measurement Protocol: Cmax in rat at 4.9 mg/kg, po
Assay type: ADME, organism-based
Parameters: dose 4.9 mg/kg, route oral
Protocol Conditions: in vivo

{"Smiles Entry": "CC(F)(F)CN1C(=O)[C@]2(C)COCCN2c2nc(-c3ccc(NC(=O)NC4CC4)cc3)ncc21", "Cmax": "1190 ng/mL"}

---

Measurement Protocol: Cmax in rat at 4.1 mg/kg, po
Format: ADME, organism-based
Design: dose 4.1 mg/kg, route oral
Protocol Conditions: in vivo

{"Smiles Entry": "CC(F)(F)CN1C(=O)[C@]2(C)COCCN2c2nc(-c3ccc(NC(=O)NC4CC4)cc3)ncc21", "Scale Unit": "ng/mL", "Cmax": 150}

---

Measurement Protocol: Cmax in rat at 3 mg/kg, po
Type: ADME, organism-based
Design: dose 3 mg/kg, route oral
Protocol Conditions: in vivo
Value Kind: Cmax (ng/mL)

{"Smiles Entry": "CC(F)(F)CN1C(=O)[C@]2(C)COCCN2c2nc(-c3ccc(NC(=O)NC4CC4)cc3)ncc21", "Numeric Result": 176}
